// values below are reported End (RU)
target: T1, recombinant human IL4Rα-his protein (in house made) (human, UniProt P24394 26-232, limits assumed); assay: SPR (Biacore), antibody captured, IL4Rα-his flowed
T1 construct: also called Human IL4Ra-his
Number plus unit, in that order.

Sample records with End (RU):
{"columns": ["BINDER", "EXPERIMENTAL ENDPOINT", "MEASURED RESULT"],
 "data": [
  ["huC2C1A1A1-V14 (antibody, human IgG4 S228P, kappa, V domains shown, Humanized, human IgG4/kappa) VH: EVQLVESGGGLVQPGGSLRLSCAASGFTFSTYGMSWVRQAPGKGLVWVATINSNGGSTSYPDSVKGRFTISRDNAKNTLYLQMNSLRAEDTAVYYCARFFRFRNAMDYWGQGTLVTVSS VL: DIQMTQSPSSLSASVGQRVTITCRTSENIYSYLAWYQQKQGKPPRFLIYNAKTLAEGVPSRFSGSGSGTEFTLTITSLQAEDFGVYYCQHYYGPPTWTFGPGTKLEIKR", "End (RU)", "50.5 RU"],
  ["huC2C1A1A1-V15 (antibody, human IgG4, V domains shown, Humanized, human IgG4/kappa) VH: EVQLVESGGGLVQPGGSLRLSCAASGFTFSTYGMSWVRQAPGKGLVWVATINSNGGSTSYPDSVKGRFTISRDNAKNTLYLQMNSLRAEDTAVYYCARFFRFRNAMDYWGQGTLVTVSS VL: DIQMTQSPSSLSASVGDRVTITCRTSENIYSYLAWYQQKPGKAPKFLVYNAKTLAEGVPSRFSGSGSGTDFTLTISSLQPEDFATYYCQHYYGPPTWTFGQGTKVEIKR", "End (RU)", "69.2 RU"],
  ["huC2C1A1A1-V3 (antibody, human IgG4, V domains shown, Humanized, human IgG4/kappa) VH: EVQLVESGGGLVQPGGSLRLSCAASGFTFSTYGMSWVRQAPGKGLVWVSTINSNGGSTSYPDSVKGRFTISRDNAKNTLYLQMNSLRAEDTAVYYCARFFRFRNAMDYWGQGTLVTVSS VL: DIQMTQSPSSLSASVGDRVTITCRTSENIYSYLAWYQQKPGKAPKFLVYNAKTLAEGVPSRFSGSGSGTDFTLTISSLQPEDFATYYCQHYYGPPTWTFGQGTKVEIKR", "End (RU)", "48.3 RU"],
  ["huC2C1A1A1-V11 (antibody, human IgG4, V domains shown, Humanized, human IgG4/kappa) VH: EVQLVESGGGLVQPGGSLRLSCAASGFTFSTYGMSWVRQAPGKGLVLVATINSNGGSTSYPDSVKGRFTISRDNAKNTLYLQMNSLRAEDTAVYYCARFFRFRNAMDYWGQGTLVTVSS VL: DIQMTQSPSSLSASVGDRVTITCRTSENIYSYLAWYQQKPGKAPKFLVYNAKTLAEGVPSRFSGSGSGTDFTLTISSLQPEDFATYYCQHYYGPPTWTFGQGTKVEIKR", "End (RU)", "53.7 RU"]
]}

Return reported End (RU); argument: huC2C1A1A1-V7 (antibody, human IgG4, V domains shown, Humanized, human IgG4/kappa) VH: EVQLVESGGGLVQPGGSLRLSCAASGFTFSTYGMSWVRQSPDKRLEWVSTINSNGGSTSYPDSVKGRFTISRDNAKNTLYLQMRSLRAEDTAVYYCARFFRFRNAMDYWGQGTLVTVSS VL: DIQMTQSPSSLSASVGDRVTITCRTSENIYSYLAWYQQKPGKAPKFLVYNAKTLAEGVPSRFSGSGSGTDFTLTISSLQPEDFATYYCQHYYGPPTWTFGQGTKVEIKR
60.1 RU

The measurements presented in this section are drawn from patent US20230105029A1.
